System: Danio rerio larvae (5 dpf)
Assay: difference in habituation to acoustic stimuli vs DMSO (percentage points); higher = more habituation than DMSO
Settings: 10 µM; exposure time 6 h
Where a name gives a salt, the structure may show the parent alone.
Threshold check on difference in habituation to acoustic stimuli: at or above 2 gives MET, strictly below gives NOT MET.

Worked set:
{"columns": ["COMPOUND", "CLASSIFICATION"],
 "data": [
  ["C[n+]1ccccc1/C=N/O [Pralidoxime (chloride)]", "MET"],
  ["CC[C@@H]1/C=C(\\C)C[C@H](C)C[C@H](OC)[C@H]2O[C@@](O)(C(=O)C(=O)N3CCCC[C@H]3C(=O)O[C@H](/C(C)=C/[C@@H]3CC[C@H](Cl)[C@H](OC)C3)[C@H](C)[C@@H](O)CC1=O)[C@H](C)C[C@@H]2OC", "NOT MET"],
  ["N[C@H](C(=O)O)[C@H](O)c1ccc(O)c(O)c1", "MET"],
  ["CCc1c2c(nc3ccc(OC(=O)N4CCC(N5CCCCC5)CC4)cc13)-c1cc3c(c(=O)n1C2)COC(=O)[C@]3(O)CC [Irinotecan (hydrochloride hydrate)]", "MET"],
  ["O=C1[C@@H]2[C@H]3CC[C@H](C3)[C@@H]2C(=O)N1C[C@@H]1CCCC[C@H]1CN1CCN(c2nsc3ccccc23)CC1", "NOT MET"]
]}

Lab note: next compound to report on.
[ask] Is difference in habituation to acoustic stimuli at least 2? Consider `C#C[C@]1(O)CC[C@H]2[C@@H]3CCC4=CC(=O)CC[C@@H]4[C@H]3C(=C)C[C@@]21CC`
[reply] NOT MET

###

Task for the reader: assign each of the following molecules its reported difference in activity during first hour.
Tested on: Danio rerio larvae (5 dpf)
Test: difference in activity during first hour vs DMSO (percentage points); higher = more activity than DMSO
Conditions: 10 µM; exposure time 6 h
Answers are plain numbers.

# count of solved cases: 2
{"columns": ["MOLECULE", "difference in activity during first hour"],
 "data": [
  ["COCCCOc1cc(C[C@@H](C[C@H](N)[C@@H](O)C[C@H](C(=O)NCC(C)(C)C(N)=O)C(C)C)C(C)C)ccc1OC [Aliskiren (hemifumarate)]", 10.2],
  ["C[C@H](Cc1cc2c(c(C(N)=O)c1)N(CCCO)CC2)NCCOc1ccccc1OCC(F)(F)F [Silodosin]", 3.31]
]}

Okay, next one:
[ask] So what's the measured difference in activity during first hour for this one? CC[C@@H]([C@H](C)O)n1ncn(-c2ccc(N3CCN(c4ccc(OC[C@@H]5CO[C@@](Cn6cncn6)(c6ccc(F)cc6F)C5)cc4)CC3)cc2)c1=O [Posaconazole]
[reply] 4.34

###

Tested on: Danio rerio larvae (5 dpf)
Assay: difference in habituation to acoustic stimuli vs DMSO (percentage points); higher = more habituation than DMSO
Conditions: 10 µM; exposure time 6 h
Counter-ions that a name gives are not always drawn.
Kind request: treat -2 as inclusive, so difference in habituation to acoustic stimuli at -2 or higher is 1, anything lower is 0.

{"columns": ["COMPOUND", "CLASSIFICATION"],
 "data": [
  ["CC(C)Cc1ccc(C(C)C(=O)O)cc1 (racemic) [(±)-Ibuprofen]", 1],
  ["O=C(Nc1c(Cl)cncc1Cl)c1ccc(OC(F)F)c(OCC2CC2)c1", 0],
  ["C[C@@H](Oc1cc(-c2cnn(C3CCNCC3)c2)cnc1N)c1c(Cl)ccc(F)c1Cl [(R)-Crizotinib]", 1],
  ["COC1=CC(=O)C[C@@H](C)[C@]12Oc1c(Cl)c(OC)cc(OC)c1C2=O", 1],
  ["CNCC(=O)OCc1cccnc1N(C)C(=O)OC(C)[n+]1cnn(C[C@](O)(c2cc(F)ccc2F)[C@@H](C)c2nc(-c3ccc(C#N)cc3)cs2)c1 (stereo partly drawn) [Isavuconazonium (sulfate)]", 0]
]}

[ask] Test whether the compound CCN(CC)C(=O)[C@@]1(c2ccccc2)C[C@H]1CN [Levomilnacipran (hydrochloride)] records difference in habituation to acoustic stimuli of -2 or higher.
[reply] 1

[ask] For CCOC(=O)[C@H](CCc1ccccc1)N[C@@H](C)C(=O)N1CCC[C@H]1C(=O)O [Enalapril (maleate)] then?
[reply] 0

[ask] Also, `C[C@H]1COc2c(N3CCN(C)CC3)c(F)cc3c(=O)c(C(=O)O)cn1c23` please.
[reply] 1

Where these numbers come from: the supplement of paper PMC10515830
